- Tested system: T1, ECF33_423
- T1 chain: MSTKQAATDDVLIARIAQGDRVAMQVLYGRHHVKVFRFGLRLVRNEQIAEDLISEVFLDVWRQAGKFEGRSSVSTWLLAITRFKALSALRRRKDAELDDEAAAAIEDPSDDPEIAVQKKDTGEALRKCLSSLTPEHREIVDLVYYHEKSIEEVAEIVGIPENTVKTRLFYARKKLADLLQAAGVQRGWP
Property: fold repression
Just the number.

Task item: Provide one value: measured fold repression of AS33_375 (protein) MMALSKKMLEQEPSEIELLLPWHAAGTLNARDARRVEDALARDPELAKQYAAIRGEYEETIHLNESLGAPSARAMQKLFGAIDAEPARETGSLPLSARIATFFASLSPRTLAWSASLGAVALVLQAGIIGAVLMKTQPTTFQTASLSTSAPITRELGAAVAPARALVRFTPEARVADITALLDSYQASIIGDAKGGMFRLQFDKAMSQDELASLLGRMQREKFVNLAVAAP
Reply: 113

Task item: Fill in fold repression for record AS15_524 (protein) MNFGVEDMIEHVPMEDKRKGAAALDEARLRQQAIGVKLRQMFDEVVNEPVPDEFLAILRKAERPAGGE
Reply: 6.68
